# testedSystem: T1, Human SEZ6L2 (Homo sapiens, UniProt Q6UXD5)
# T1 construct: a protein composed of the extracellular portion of the human SEZ6L2 protein; His6 (C); made in house; host or cells: CHO (ExpiCHO)
# T1 sequence (Q6UXD5 28-844 limits assumed): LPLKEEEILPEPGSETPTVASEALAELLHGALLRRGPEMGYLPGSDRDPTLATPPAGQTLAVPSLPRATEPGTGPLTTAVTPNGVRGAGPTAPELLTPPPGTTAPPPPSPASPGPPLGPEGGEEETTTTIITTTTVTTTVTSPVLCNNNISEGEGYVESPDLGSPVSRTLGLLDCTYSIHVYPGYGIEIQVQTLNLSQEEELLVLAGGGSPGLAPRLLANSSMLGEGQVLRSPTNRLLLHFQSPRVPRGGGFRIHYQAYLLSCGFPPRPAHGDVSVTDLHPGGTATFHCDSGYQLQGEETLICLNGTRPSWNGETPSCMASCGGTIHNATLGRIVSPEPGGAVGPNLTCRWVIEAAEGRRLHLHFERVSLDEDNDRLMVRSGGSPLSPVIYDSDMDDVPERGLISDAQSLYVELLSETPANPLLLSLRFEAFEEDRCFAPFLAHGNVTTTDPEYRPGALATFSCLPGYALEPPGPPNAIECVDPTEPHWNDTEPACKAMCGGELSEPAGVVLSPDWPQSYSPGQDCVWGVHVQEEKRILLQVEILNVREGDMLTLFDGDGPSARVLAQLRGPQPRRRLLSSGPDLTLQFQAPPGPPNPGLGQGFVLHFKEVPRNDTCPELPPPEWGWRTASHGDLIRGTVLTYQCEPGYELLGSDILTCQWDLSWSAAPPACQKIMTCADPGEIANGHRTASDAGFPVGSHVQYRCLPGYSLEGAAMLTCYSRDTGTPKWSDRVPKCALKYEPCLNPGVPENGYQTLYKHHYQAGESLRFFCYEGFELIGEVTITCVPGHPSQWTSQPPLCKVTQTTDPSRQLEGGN
# testMethodNotes: ForteBio Octet binding kinetics, Protein A biosensors
endpointName: K(on)

16H8: humanized anti-SEZ6L2 antibody, VH SEQ ID NO: 1, VL SEQ ID NO: 5 (antibody, V domains shown) VH: QIQLVQPGAEVKKPGASVKVSCKASGYTFTSYWMYWVRQAPGQGLEWMGAIYPRDSDTSYNQKFKGRVTMTRVTSTSTVYMELSSLRSEDTAVYYCTRGDYYYGSSYYAMDYWGQGTTVTVSSA VL: DIVMTQSPLSLPVTPGEPASISCSSSKSLLHSNGITYLYWYLQKPGQSPQLLIYRMSNLASGVPDRFSGSGSGTDFTLKISRVEAEDVGVYYCAQMLERPYTFGQGTKVEIKR
6.03E+05
20C4: humanized anti-SEZ6L2 antibody, VH SEQ ID NO: 17, VL SEQ ID NO: 21 (antibody, V domains shown) VH: EVQLVESGGGLVQPGGSLRLSCAASGFTFTDYYMSWVRQAPGKGLEWVALIRNKANGYTTEYSASVKGRFTISRDNSKNSLYLQMNSLRAEDTAVYYCARNGLYGLFAYWGQGTLVTVSSA VL: DIVMTQTPLSIPVTPGEPASISCRSSTSLLESSGKHRLYWYLQKPGQSPQLLIYYMSNLASGVPDRFSGSGSGTDFTLKISRVEAEDFGVYYCMQSLEYPLTFGAGTKVEIKR
6.35E+04
2E4: humanized anti-SEZ6L2 antibody, VH SEQ ID NO: 25, VL SEQ ID NO: 29 (antibody, V domains shown) VH: EVKLVESGGVLVKPGGSLRLSCAASGFTFSKYAMSWVRQAPGKGLEWVSTISSGGSYTYYPDSVKGRFTISRDNARNSLYLQMNSLRAEDTAIYYCTREGGYDEGYAMDYWGQGTTVTVSSA VL: DIVMTQSPDSLAVSLGERATINCRSSQSLVHSYGNTYLHWYQQKPGQPPKLLIYKVSNRFSGVPDRFSGSGSGTDFTLTISSLQAEDVAVYFCSQSTHFRTFGGGTKVEIKR
2.05E+05
3E2: humanized anti-SEZ6L2 antibody, VH SEQ ID NO: 9, VL SEQ ID NO: 13 (antibody, V domains shown) VH: EVQLVESGGGLVQPGGSLKLSCAASGFSFNTITMNWVRQASGKGLEWVGRIRSKSNNYATYYADAVKDRFTISRDDSKNTAYLQMNSLKTEDTAVYYCVRGIFSGYVYAMDYWGQGTLVTVSSA VL: DVVMTQSPLSLPVTVGQPASISCRSSQSIVHSNGNTYLEWFQQRPGQSPRVLIYKVSNRFSGVPDRFSGSGSGTDFTLKISRVEAEDVGVYYCFQGSHVPYTFGGGTKLEIKR
1.33E+06
